Sourced from ChEMBL document CHEMBL2218924

Parameter residual activity: see the listing below.
Target: Tyrosine-protein kinase ITK/TSK (Homo sapiens) (UniProt Q08881)
Sequence (Q08881 whole entry): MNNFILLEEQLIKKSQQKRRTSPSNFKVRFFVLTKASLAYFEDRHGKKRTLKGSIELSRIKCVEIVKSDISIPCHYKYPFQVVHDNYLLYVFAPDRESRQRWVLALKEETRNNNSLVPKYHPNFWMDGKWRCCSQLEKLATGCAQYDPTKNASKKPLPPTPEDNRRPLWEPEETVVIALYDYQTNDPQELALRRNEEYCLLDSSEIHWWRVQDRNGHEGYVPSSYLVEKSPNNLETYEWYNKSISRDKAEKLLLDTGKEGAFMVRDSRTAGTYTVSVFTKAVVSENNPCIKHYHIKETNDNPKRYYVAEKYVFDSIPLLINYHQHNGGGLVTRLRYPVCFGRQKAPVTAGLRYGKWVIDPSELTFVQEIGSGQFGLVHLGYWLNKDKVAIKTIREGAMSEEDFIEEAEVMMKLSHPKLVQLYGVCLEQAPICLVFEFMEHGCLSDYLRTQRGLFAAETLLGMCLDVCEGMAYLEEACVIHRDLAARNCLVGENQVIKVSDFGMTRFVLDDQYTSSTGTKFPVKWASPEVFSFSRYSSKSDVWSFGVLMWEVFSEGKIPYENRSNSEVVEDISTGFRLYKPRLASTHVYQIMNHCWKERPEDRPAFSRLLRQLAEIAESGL
Conditions: at 10 µM

{"columns": ["Smiles string", "Quantity unit", "residual activity"],
 "data": [
  ["CC(C)(C)n1nc(Cc2cccc3ccccc23)c2c(N)ncnc21", "%", 106],
  ["Nc1ncnc2[nH]nc(Nc3ccc(F)cc3)c12", "%", 78],
  ["N#C/C(=C\\c1ccc(O)c(O)c1)C(=O)NCc1ccccc1", "%", 104]
]}

---

Let's look at some compounds and their measured residual activity.
Target: Serine/threonine-protein kinase 10 (Homo sapiens) (UniProt O94804)
Sequence (O94804 whole entry, looked up): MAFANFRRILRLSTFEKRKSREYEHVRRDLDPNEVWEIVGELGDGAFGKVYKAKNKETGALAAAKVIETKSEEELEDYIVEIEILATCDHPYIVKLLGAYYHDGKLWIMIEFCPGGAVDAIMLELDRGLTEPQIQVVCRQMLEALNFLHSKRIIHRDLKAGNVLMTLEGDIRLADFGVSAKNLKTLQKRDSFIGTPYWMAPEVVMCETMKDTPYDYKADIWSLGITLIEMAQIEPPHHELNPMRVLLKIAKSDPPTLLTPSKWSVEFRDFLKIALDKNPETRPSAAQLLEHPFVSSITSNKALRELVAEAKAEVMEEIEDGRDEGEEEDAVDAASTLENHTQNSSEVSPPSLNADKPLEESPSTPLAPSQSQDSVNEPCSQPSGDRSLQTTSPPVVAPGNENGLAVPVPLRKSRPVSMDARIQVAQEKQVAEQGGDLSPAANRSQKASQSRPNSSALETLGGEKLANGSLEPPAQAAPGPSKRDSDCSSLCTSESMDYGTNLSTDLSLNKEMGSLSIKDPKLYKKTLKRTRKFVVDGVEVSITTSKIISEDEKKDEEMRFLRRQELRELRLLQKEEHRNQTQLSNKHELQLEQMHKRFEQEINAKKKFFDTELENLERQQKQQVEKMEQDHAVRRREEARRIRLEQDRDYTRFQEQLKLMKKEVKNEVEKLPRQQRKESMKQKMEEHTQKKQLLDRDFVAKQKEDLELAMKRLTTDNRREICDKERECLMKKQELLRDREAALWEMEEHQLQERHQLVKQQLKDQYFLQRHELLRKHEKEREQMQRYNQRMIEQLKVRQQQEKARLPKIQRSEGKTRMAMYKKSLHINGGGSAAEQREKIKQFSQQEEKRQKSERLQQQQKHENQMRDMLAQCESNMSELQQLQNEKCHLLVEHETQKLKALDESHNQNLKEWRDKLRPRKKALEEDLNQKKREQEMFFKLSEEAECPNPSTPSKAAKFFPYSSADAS
Settings: at 10 µM

{"columns": ["Compound", "Quantity unit", "residual activity"],
 "data": [
  ["CCN(CC)CCNC(=O)c1c(C)[nH]c(/C=C2\\C(=O)Nc3ccc(Cl)cc32)c1C", "%", 5],
  ["N#Cc1c(NC(=O)c2cccc3ccccc23)sc2c1CCCC2", "%", 92],
  ["O=C1NC(=O)C(c2cn(CCCO)c3ncccc23)=C1c1cnccn1", "%", 80],
  ["CCCC(=O)Oc1ccc2[nH]c(C(=O)c3cc4ccccc4[nH]3)cc2c1", "%", 96],
  ["O=C1NC(=O)C(c2cn(CCCn3ccnc3)c3ccccc23)=C1Nc1ccccc1", "%", 6],
  ["Cn1sc(=O)n(Cc2ccccc2)c1=O", "%", 95],
  ["Fc1ccc(-c2nc3n(c2-c2ccncc2)CCS3)cc1", "%", 99],
  ["O=C(O)/C=C/c1cc(Br)c(Br)c(Br)c1Br", "%", 58],
  ["CSc1nc(-c2ccc(F)cc2)c(-c2ccnc(NC(C)c3ccccc3)c2)[nH]1 (stereo unspecified)", "%", 96],
  ["O=C1Nc2ccc(Cl)cc2/C1=C/c1cc(Cl)c(O)c(Cl)c1", "%", 47],
  ["CCCCc1c(-c2ccc(OC)cc2)[nH]c2nccnc12", "%", 110]
]}

---

Molecular target: Serine/threonine-protein kinase Sgk2 (Homo sapiens)
Settings: at 10 µM
Measured residual activity of individual entries

{"columns": ["Smiles string", "Quantity unit", "residual activity"],
 "data": [
  ["CCCCc1c(-c2ccc(OC)cc2)[nH]c2nccnc12", "%", 81],
  ["O=C(c1ccccc1)c1ccc(N2CCOCC2)cc1O", "%", 68],
  ["O=C(Nc1ccc(Cl)cc1)c1ccccc1NCc1ccncc1", "%", 72],
  ["O=C1NC(=O)C(c2c[nH]c3ccccc23)=C1c1c[nH]c2ccccc12", "%", 29],
  ["N#Cc1c(NC(=O)c2cccc3ccccc23)sc2c1CCCC2", "%", 90],
  ["O=C1Nc2ccc(Cl)cc2/C1=C/c1cc(Cl)c(O)c(Cl)c1", "%", 55],
  ["COc1cc2ncnc(Nc3cccc(Cl)c3)c2cc1OC", "%", 70],
  ["COc1cc2nccc(Oc3ccc(NC(=O)Nc4cc(C)on4)c(Cl)c3)c2cc1OC", "%", 79],
  ["CN(C)S(=O)(=O)c1ccc2c(c1)/C(=C/c1cc3c([nH]1)CCCC3)C(=O)N2", "%", 95],
  ["NCCNc1ncc(C(N)=O)c(Nc2cccc(C(F)(F)F)c2)n1", "%", 78],
  ["CC(C)(C)n1nc(Cc2cccc3ccccc23)c2c(N)ncnc21", "%", 78]
]}

---

Entries and their residual activity
Biological target: Serine/threonine-protein kinase 17A (Homo sapiens)
Conditions: at 10 µM

{"columns": ["Smiles string", "residual activity (%)"],
 "data": [
  ["NC(=O)Nc1sc(-c2ccc(F)cc2)cc1C(N)=O", 39],
  ["NC(=O)c1cccc(-c2cc(Nc3ccc(OC(F)(F)F)cc3)ncn2)c1", 145],
  ["Nc1ncnc2c1c(-c1ccc(Oc3ccccc3)cc1)cn2C1CCCC1", 104],
  ["Fc1ccc(-c2nc3n(c2-c2ccncc2)CCS3)cc1", 91],
  ["Nc1nccc(-c2c(-c3ccc(F)cc3)ncn2C2CCNCC2)n1", 21],
  ["O=C1NC(=O)C(c2c[nH]c3ccccc23)=C1c1c[nH]c2ccccc12", 25]
]}

---

Target: Receptor-type tyrosine-protein kinase FLT3 (Homo sapiens)
Conditions: at 1 µM
Parameter measured: residual activity (%)

{"columns": ["Smiles string", "Recorded number"],
 "data": [
  ["c1ccc(-c2cnc(Nc3ccc(OCCN4CCCC4)cc3)s2)cc1", 4],
  ["CCN1/C(=C/C(C)=O)Sc2ccc(OC)cc21", 64],
  ["Cn1c2ccccc2c2c3c(c4c5ccccc5n(CCC#N)c4c21)CNC3=O", 0],
  ["O=C(c1ccccc1)c1ccc(N2CCOCC2)cc1O", 83],
  ["CCCCc1c(-c2ccc(O)cc2)[nH]c2nccnc12", 29],
  ["Oc1cccc(-c2nc(N3CCOCC3)c3oc4ncccc4c3n2)c1", 89],
  ["COc1ccc2c(c1)c(C1=C(c3c[nH]c4ccccc34)C(=O)NC1=O)cn2CCCN(C)C", 21],
  ["COc1cc2nccc(Oc3ccc(NC(=S)NC(=O)c4ccccc4C)cc3)c2cc1OC", 75],
  ["Nc1ncnc2c1cnn2-c1ccccc1", 95],
  ["O=C1NC(=O)C(c2c[nH]c3ccccc23)=C1c1c[nH]c2ccccc12", 19],
  ["NCCNc1ncc(C(N)=O)c(Nc2cccc(C(F)(F)F)c2)n1", 50]
]}

---

Listed next: entries and their corresponding residual activity.
Target: Serine/threonine-protein kinase MARK1 (Homo sapiens) (UniProt Q9P0L2)
Sequence (Q9P0L2 whole entry, looked up): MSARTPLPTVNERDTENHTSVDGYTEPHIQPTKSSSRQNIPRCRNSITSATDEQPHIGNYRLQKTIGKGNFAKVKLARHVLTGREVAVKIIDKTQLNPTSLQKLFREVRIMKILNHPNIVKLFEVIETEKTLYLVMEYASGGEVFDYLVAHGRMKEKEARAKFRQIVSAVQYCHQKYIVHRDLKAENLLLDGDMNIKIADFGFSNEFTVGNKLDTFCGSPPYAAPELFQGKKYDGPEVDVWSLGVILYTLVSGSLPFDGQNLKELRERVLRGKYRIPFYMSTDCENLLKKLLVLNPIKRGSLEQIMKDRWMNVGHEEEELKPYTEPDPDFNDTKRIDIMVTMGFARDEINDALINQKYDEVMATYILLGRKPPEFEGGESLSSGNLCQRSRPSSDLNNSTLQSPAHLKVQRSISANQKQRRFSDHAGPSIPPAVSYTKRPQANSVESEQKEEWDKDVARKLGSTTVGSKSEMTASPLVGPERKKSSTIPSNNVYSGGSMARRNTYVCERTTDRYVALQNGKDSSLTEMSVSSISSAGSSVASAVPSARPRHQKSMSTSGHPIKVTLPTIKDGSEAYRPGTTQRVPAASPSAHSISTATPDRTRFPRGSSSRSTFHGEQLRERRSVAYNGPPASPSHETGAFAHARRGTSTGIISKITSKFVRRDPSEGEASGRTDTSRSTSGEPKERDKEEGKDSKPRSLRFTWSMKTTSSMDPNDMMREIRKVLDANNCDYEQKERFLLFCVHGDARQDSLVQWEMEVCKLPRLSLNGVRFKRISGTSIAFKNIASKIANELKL
Conditions: at 10 µM

{"columns": ["Smiles string", "Experimental target", "residual activity"],
 "data": [
  ["O=C(CCCc1ccc(-c2ccccc2F)cc1)Nc1ccc(O)cc1", "Serine/threonine-protein kinase MARK1 (Homo sapiens) (UniProt Q9P0L2)", "94%"],
  ["O=C1C(Cl)=C(N2C(=O)CCC2=O)C(=O)c2ccccc21", "Serine/threonine-protein kinase MARK1 (Homo sapiens) (UniProt Q9P0L2)", "81%"],
  ["Nc1n[nH]c2nc3ccccc3nc12", "Serine/threonine-protein kinase MARK1 (Homo sapiens) (UniProt Q9P0L2)", "74%"],
  ["O=S(=O)(NCCNC/C=C/c1ccc(Br)cc1)c1cccc2cnccc12", "Serine/threonine-protein kinase MARK1 (Homo sapiens) (UniProt Q9P0L2)", "37%"],
  ["N#Cc1c(NC(=O)c2cccc3ccccc23)sc2c1CCCC2", "Serine/threonine-protein kinase MARK1 (Homo sapiens) (UniProt Q9P0L2)", "92%"],
  ["O=C1Cc2c([nH]c3ccc([N+](=O)[O-])cc23)-c2ccccc2N1", "Serine/threonine-protein kinase MARK1 (Homo sapiens) (UniProt Q9P0L2)", "28%"]
]}

---

Target: Serine/threonine-protein kinase Sgk1 (Homo sapiens) (UniProt O00141)
Sequence (O00141 whole entry): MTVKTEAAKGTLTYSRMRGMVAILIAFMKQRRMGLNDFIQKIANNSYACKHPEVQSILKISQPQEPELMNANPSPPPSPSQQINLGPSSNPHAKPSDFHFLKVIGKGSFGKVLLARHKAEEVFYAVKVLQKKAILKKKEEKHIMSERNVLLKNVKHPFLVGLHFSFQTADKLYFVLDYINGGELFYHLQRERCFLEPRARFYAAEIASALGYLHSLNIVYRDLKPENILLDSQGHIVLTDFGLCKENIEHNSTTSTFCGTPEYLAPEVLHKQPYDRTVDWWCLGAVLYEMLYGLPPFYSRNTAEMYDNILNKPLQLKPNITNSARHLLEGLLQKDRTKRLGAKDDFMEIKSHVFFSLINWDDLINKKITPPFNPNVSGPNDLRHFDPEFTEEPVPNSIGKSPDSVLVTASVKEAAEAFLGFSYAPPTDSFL
Details: at 1 µM
Parameter residual activity: see the listing below.

{"columns": ["Smiles string", "Quantity unit", "residual activity"],
 "data": [
  ["Cn1sc(=O)n(Cc2ccccc2)c1=O", "%", 91],
  ["Cn1c2ccccc2c2c3c(c4c5ccccc5n(CCC#N)c4c21)CNC3=O", "%", 82],
  ["CN(C)S(=O)(=O)c1ccc2c(c1)/C(=C/c1cc3c([nH]1)CCCC3)C(=O)N2", "%", 82],
  ["CN([C@@H](Cc1ccc(OS(=O)(=O)c2cccc3cnccc23)cc1)C(=O)N1CCN(c2ccccc2)CC1)S(=O)(=O)c1cccc2cnccc12", "%", 123],
  ["O=C1Nc2ccc(Cl)cc2/C1=C/c1cc(Cl)c(O)c(Cl)c1", "%", 64],
  ["NCCNc1ncc(C(N)=O)c(Nc2cccc(C(F)(F)F)c2)n1", "%", 81],
  ["N#C/C(=C\\c1ccc(O)c(O)c1)C(=O)NCc1ccccc1", "%", 79],
  ["COc1ccc(Cl)cc1NC(=O)Nc1cc(C)nc2ccccc12", "%", 80],
  ["O=C(c1ccccc1)c1ccc(N2CCOCC2)cc1O", "%", 79],
  ["O=S(=O)(c1cccc2cnccc12)N1CCCNCC1", "%", 84],
  ["COc1ccc2c(c1)c(C1=C(c3c[nH]c4ccccc34)C(=O)NC1=O)cn2CCCN(C)C", "%", 107],
  ["O=C1Cc2c([nH]c3ccc(Br)cc23)-c2ccccc2N1", "%", 95],
  ["CC(C)N(CCC(=O)c1ccc2ccccc2c1)Cc1ccccc1", "%", 78],
  ["Nc1ncnc2[nH]nc(Nc3ccc(F)cc3)c12", "%", 94],
  ["O=C(O)/C=C/c1cc(Br)c(Br)c(Br)c1Br", "%", 100],
  ["CC(C)(C)n1nc(Cc2cccc3ccccc23)c2c(N)ncnc21", "%", 100],
  ["O=C1NC(=O)C(c2c[nH]c3ccccc23)=C1c1c[nH]c2ccccc12", "%", 76],
  ["CC(C)c1nn(-c2c(Cl)cccc2Cl)c2nc(Cc3ccc(OCCO)cc3)[nH]c(=O)c12", "%", 99],
  ["O=C1C(Cl)=C(N2C(=O)CCC2=O)C(=O)c2ccccc21", "%", 90],
  ["COc1cc2ncnc(Nc3cccc(Cl)c3)c2cc1OC", "%", 89],
  ["COc1cc2c(cc1OC)-c1n[nH]c(Nc3cccc(F)c3)c1C2", "%", 70],
  ["O=C(CCCc1ccc(-c2ccccc2F)cc1)Nc1ccc(O)cc1", "%", 83],
  ["Nc1nc(Nc2ccc(S(N)(=O)=O)cc2)nn1C(=O)c1c(F)cccc1F", "%", 124],
  ["O=C1NC(=O)c2c1c1c3ccccc3[nH]c1n1cncc21", "%", 66]
]}
